- Tested on: E. coli
- Assay Explanation: MIC testing by broth dilution, E. coli plank
- Assay type: cell-based, Escherichia coli
- Experimental Context: Escherichia coli, 24 h, read-out: MIC (μM) E. coli Plank
Counter-ions that a name gives are not always drawn.
So I've got a bunch of compounds here, and I need their MIC values.
Please report the result as a number followed by the unit.

# Compound, MIC
rows = [
    ("O=C(Nc1ncc([N+](=O)[O-])s1)c1cc2ccccc2[nH]1", "111 µM"),
    ("O=C(O)COc1ccccc1C(=O)Nc1ncc([N+](=O)[O-])s1", "99 µM"),
    ("NCCOc1ccccc1C(=O)Nc1ncc([N+](=O)[O-])s1 [VPC161219, hydrochloride]", "69.6 µM"),
]

Fill in MIC for each of the 2 compounds listed.
1. N[C@@H](Cc1ccccc1)C(=O)Nc1ncc([N+](=O)[O-])s1 [VPC16a1028, hydrochloride]
2. O=C(Nc1ncc([N+](=O)[O-])s1)c1ccc(Cl)c(C(F)(F)F)c1

Result string:
["97.3 µM", "91 µM"]

###

- System: H. pylori
- Assay Explanation: MIC testing by broth dilution, H. pylori
- Format: cell-based, Helicobacter pylori
- Experimental Context: Helicobacter pylori, 24 h, read-out: MIC (μM) H. pylori
Counter-ions that a name gives are not always drawn.
Assign MIC to each entry below.
Answer format: number, then unit.

# Molecule, Result
records = [
    ("CC(C)(C)OC(=O)Nc1ccccc1C(=O)Nc1ncc([N+](=O)[O-])s1", "0.3 µM"),
]

Hi, could you look up MIC for each item in my list?
1. NCCOC(=O)COc1ccccc1C(=O)Nc1ncc([N+](=O)[O-])s1 [VPC162082, hydrochloride]
2. O=C(O)COc1ccccc1C(=O)Nc1ncc([N+](=O)[O-])s1
3. O=C(Nc1ncc([N+](=O)[O-])s1)c1cc2ccccc2[nH]1

Result string:
1: 6.2 µM; 2: 49.5 µM; 3: 6.9 µM

// each molecule listed below needs its MIC
1. O=C(CCCC(=O)Nc1ncc([N+](=O)[O-])s1)Nc1ncc([N+](=O)[O-])s1
2. NCCOc1ccccc1C(=O)Nc1ncc([N+](=O)[O-])s1 [VPC161219, hydrochloride]

Result string:
5.2 µM
0.7 µM

###

I'd appreciate it if you could supply MIC values for the items below.
- Tested on: C. jejuni
- Assay Explanation: MIC testing by broth dilution, C. jejuni
- Type: cell-based, Campylobacter jejuni
- Experimental Context: broth dilution, Brain Heart Infusion, 24 h; read-out: MIC (μM) C. jejuni
# output: numeric value plus its unit

# Compound, Experimental System, Result
rows = [
    ("CCCCCCCC(=O)Nc1ncc([N+](=O)[O-])s1 [VPC16b1046]", "C. jejuni", "106.9 µM"),
]

For every item in the list below, what is its measured MIC?
1. O=C(C=Cc1ccc(C(F)(F)F)cc1)Nc1ncc([N+](=O)[O-])s1 [VPC161239]
2. CC(=O)NCCOc1ccccc1C(=O)Nc1ncc([N+](=O)[O-])s1 [VPC162044]
3. O=C(Nc1ncc([N+](=O)[O-])s1)c1ccccc1C(F)(F)F [VPC161182]
4. O=C(O)CCCC(=O)Nc1ncc([N+](=O)[O-])s1 [VPC161273]

Result string:
1: 93.2 µM; 2: 34.3 µM; 3: 18.9 µM; 4: 123.4 µM

Working through the 3 compounds below one at a time, give MIC for each.
1. O=C(Nc1ncc([N+](=O)[O-])s1)c1cccnc1 [VPC161176]
2. O=C(Nc1ncc([N+](=O)[O-])s1)c1cc(F)c(F)c(F)c1 [VPC16b1014]
3. O=C(Nc1ncc([N+](=O)[O-])s1)c1ccc(F)cc1C(F)(F)F [VPC161127]

Result string:
1. 71.9 µM
2. 4.9 µM
3. 23.9 µM

Consider the following items and state reported MIC for each.
1. O=C(Nc1ncc([N+](=O)[O-])s1)c1ccc(F)c([N+](=O)[O-])c1 [VPC16b1017]
2. O=C(Nc1ncc([N+](=O)[O-])s1)c1cc(C(F)(F)F)ccc1Cl [VPC16a1040]
3. NCCOc1ccccc1C(=O)Nc1ncc([N+](=O)[O-])s1.O=C(O)C(F)(F)F [VPC161219TFA]
4. NCCCC[C@H](N)C(=O)Nc1ncc([N+](=O)[O-])s1 [VPC16a1032]

Result string:
51.2 µM
17.1 µM
14.2 µM
92.4 µM

Batch lookup, MIC per entry.
1. CC(C)(C)OC(=O)COc1ccc(C(=O)Nc2ncc([N+](=O)[O-])s2)cc1 [VPC162036]
2. CCCCCCNC(=O)COc1ccccc1C(=O)Nc1ncc([N+](=O)[O-])s1 [VPC162064]
3. O=C(Nc1ncc([N+](=O)[O-])s1)c1cccc(OC(F)(F)F)c1 [VPC16a1041]

Result string:
1: 84.4 µM; 2: 78.7 µM; 3: 9.0 µM

Query string: Value lookup for MIC; key = COc1ccccc1C(=O)Nc1ncc([N+](=O)[O-])s1 [VPC161192]
Result string: 17.9 µM

###

- System: E. coli biofilm
- Assay Explanation: E. coli biofilm assay (activity tables)
- Format: cell-based, Escherichia coli
- Experimental Context: biofilm; Furan analogues table; read-out: MIC E. coli Biofilm
I'd appreciate it if you marked entries Met when MIC is lower than 90 µM and Not met when it is not.

Some solved entries appear below for comparison.
# Given Smiles, Experimental System, Classification
records = [
    ("O=C(Nc1ncc([N+](=O)[O-])s1)c1ccc([N+](=O)[O-])o1", "E. coli biofilm", "Met"),
    ("O=C(Nc1ncc([N+](=O)[O-])s1)c1ccco1", "E. coli biofilm", "Met"),
    ("O=C(Nc1ncc([N+](=O)[O-])s1)c1cc2ccccc2o1", "E. coli biofilm", "Not met"),
]

Please find the next compound below.
Query string: Report whether reported MIC is lower than 90 µM (strictly) for O=C(Nc1ncc([N+](=O)[O-])s1)c1cc(Br)c(Br)o1
Result string: Met

###

Answer each item with its documented Disk Diff (%) C. difficile.
- Tested on: C. difficile
- Assay Explanation: Disk diffusion (Kirby Bower), C. difficile
- Format: cell-based, Clostridium difficile
- Experimental Context: Nitazoxanide = 100; 2-amino-3,5-dinitrothiophene analogues table
- Protocol: A standard broth dilution protocol was used in 96 well microplates containing a standard dilution of the microorganism to be tested in 100 microliters of the appropriate medium. […] The wells were scored visually at 24 h. The well where there was no growth was recorded as the MIC. […] In these assays, zone of inhibited growth was measured and compared by relative ratio to the zone recorded for NTZ. […]
Answers are plain numbers, in %.

These recorded examples may help you get a feel for the data.
# Compound, Unit String, Numeric Value
rows = [
    ("O=C(Nc1sc([N+](=O)[O-])cc1[N+](=O)[O-])c1cccs1 [VPC16b1093]", "%", 43),
    ("O=C(Nc1sc([N+](=O)[O-])cc1[N+](=O)[O-])c1ccoc1 [VPC16b1094]", "%", 53),
    ("CC(=O)Oc1ccccc1C(=O)Nc1ncc([N+](=O)[O-])s1 [Nitazoxanide, reference compound]", "%", 100),
    ("O=C(Nc1sc([N+](=O)[O-])cc1[N+](=O)[O-])c1cccc(C(F)(F)F)c1 [VPC16b1092]", "%", 59),
]

Query string: Report Disk Diff (%) C. difficile for O=C(Nc1sc([N+](=O)[O-])cc1[N+](=O)[O-])c1ccccc1 [VPC16b1090] please.
Result string: 0

###

- Assay Explanation: Solubility in water
- Type: physicochemical
- Experimental Context: water
Where a name gives a salt, the structure may show the parent alone.
Assay Readout: solubility (µg/mL)
One number for each entry, in µg/mL.

Query string: # input molecule: NCCOc1ccccc1C(=O)Nc1ncc([N+](=O)[O-])s1 [VPC161219, hydrochloride] ; wanted: its solubility
Result string: 400

###

- Tested on: C. jejuni
- Assay Explanation: MIC testing by broth dilution, C. jejuni
- Assay type: cell-based, Campylobacter jejuni
- Experimental Context: broth dilution, Brain Heart Infusion, 24 h; read-out: MIC (μM) C. jejuni
Provide the recorded MIC for the entries that follow.
One number for each entry, in µM.

Below: 2 molecules and their reported MIC.
# Molecule, Assay Readout, Unit String, Numeric Value
records = [
    ("N#Cc1cccc(C(=O)Nc2ncc([N+](=O)[O-])s2)c1 [VPC161173]", "MIC", "µM", 36.5),
    ("Cl.N[C@H](C(=O)Nc1ncc([N+](=O)[O-])s1)c1ccccc1 [VPC16a1027]", "MIC", "µM", 38.1),
]

Dear reader, for each entry below, please note its MIC.
1. Cl.NCCOc1cc([N+](=O)[O-])ccc1C(=O)Nc1ncc([N+](=O)[O-])s1 [VPC161256]
2. COc1cc([N+](=O)[O-])ccc1C(=O)Nc1ncc([N+](=O)[O-])s1 [VPC161093]
3. CC(=O)Nc1ccccc1C(=O)Nc1ncc([N+](=O)[O-])s1 [VPC162046b]
4. Cn1cc(C(=O)Nc2ncc([N+](=O)[O-])s2)c2ccccc21 [VPC16a1014]
5. NCCCCOc1ccccc1C(=O)Nc1ncc([N+](=O)[O-])s1.O=C(O)C(F)(F)F [VPC162096TFA]
6. Cn1c(C(=O)Nc2ncc([N+](=O)[O-])s2)cc2ccccc21 [VPC16b1028]

Result string:
[5.1, 9.3, 41.6, 19.9, 6.7, 39.7]

Query string: Checklist item: MIC tested on C. jejuni, entry CN(C)CCOc1ccccc1C(=O)Nc1ncc([N+](=O)[O-])s1 [VPC162052] , value?
Result string: 17.8

The measurements presented in this section are drawn from patent US8835644B2.
